The following compounds are listed with their measured pIC50 values.
target: human lung tryptase; assay: β-Tryptase In-Vitro Enzyme Assay; settings: human lung tryptase 1 nM, substrate H-D-HHT-Ala-Arg-pNa 500 μM, pH 7.4, room temperature
pIC50: −log10 of the molar value.
recorded.metric: pIC50

NCc1ccc2c(c1)C1(CCN(C(=O)c3cc4ccccc4s3)CC1)CO2 [Cpd 110]
7.43
NCc1ccc2c(c1)C1(CCN(C(=O)/C=C/c3ccc(-c4ccccc4)cc3)CC1)CO2 [Cpd 117]
6.22
C[SH]1C=C(C(F)(F)F)C2=C1NN(C(=O)N1CCC3(CC1)COc1ccc(CN)cc13)C2 (stereo not drawn) [Cpd 276]
6.82
